Attribution: patent EP4610269A1

pIC50 for assorted molecules
Target: uPAR-expressing HEC-265 human endometrial adenocarcinoma cells (Homo sapiens, UniProt Q03405)
Sequence (Q03405 23-335): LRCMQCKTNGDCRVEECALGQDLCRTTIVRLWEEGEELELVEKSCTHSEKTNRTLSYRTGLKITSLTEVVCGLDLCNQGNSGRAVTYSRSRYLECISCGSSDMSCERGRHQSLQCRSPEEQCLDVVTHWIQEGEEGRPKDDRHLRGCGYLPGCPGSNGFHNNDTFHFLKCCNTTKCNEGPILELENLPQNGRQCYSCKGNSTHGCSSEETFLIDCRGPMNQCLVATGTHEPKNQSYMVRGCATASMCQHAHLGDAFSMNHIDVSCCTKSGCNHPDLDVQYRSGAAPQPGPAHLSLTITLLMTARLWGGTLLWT
pIC50: −log10 of the molar value. Where a SMILES comes first, the peptide text is derived from it. Bridges are numbered along the chain shown (N, C = ends). [ ]: non-standard residue; d: D form. The star is where a group is joined. X3 = NC(=O)[C@H](CCCCNC(=O)CN1CCN(CC(=O)O)CCN(CC(=O)O)CCN(CC(=O)O)CC1)NC(=O)CCC(=O)NCCCOCCOCCOCCCN*; DOTA = O=C(O)CN1CCN(CC(=O)O)CCN(CC(=O)*)CCN(CC(=O)O)CC1; Phe(4-CN) = N#Cc1ccc(C[C@H](N)C(=O)O)cc1; Pro(cis-4-F) = O=C(O)[C@@H]1C[C@H](F)CN1; Tyr(3-NH2) = Nc1cc(C[C@H](N)C(=O)O)ccc1O; Hyp = O=C(O)[C@@H]1C[C@@H](O)CN1; 3Pal = N[C@@H](Cc1cccnc1)C(=O)O; Cit = NC(=O)NCCC[C@H](N)C(=O)O; Butoxycarbonyl = CCCCOC(=O)*; NMeS = CN[C@@H](CO)C(=O)O; Orn = NCCC[C@H](N)C(=O)O; Nva = CCC[C@H](N)C(=O)O; Hexanoyl = CCCCCC(=O)*; Pentanoyl = CCCCC(=O)*
measure: pIC50

molecule	value_observed
CCCCC(=O)N[C@H]1CSSC[C@@H](C(N)=O)NC(=O)[C@H](CCC)NC(=O)[C@H]([C@@H](C)CC)NC(=O)[C@@H]2C[C@@H](O)CN2C(=O)[C@@H]2CCCN2C(=O)[C@H](Cc2ccccc2)NC(=O)[C@H](Cc2cccnc2)NC(=O)[C@H](CCCCNC(=O)CN2CCN(CC(=O)O)CCN(CC(=O)O)CCN(CC(=O)O)CC2)NC(=O)[C@H](CCCNC(N)=O)NC1=O [UPAR-138] (Pentanoyl-C[Cit]K(DOTA)[3Pal]FP[Hyp]I[Nva]C-NH2; disulfide 1-10)	≥ 8.00
CCCCCC(=O)N[C@@H](CC(=O)O)C(=O)N[C@@H](CC(C)C)C(=O)N[C@H]1CSSC[C@@H](C(=O)NCCCOCCOCCOCCCNC(=O)CCC(=O)N[C@@H](CCCCNC(=O)CN2CCN(CC(=O)O)CCN(CC(=O)O)CCN(CC(=O)O)CC2)C(N)=O)NC(=O)[C@H](CC(C)C)NC(=O)[C@H]([C@@H](C)CC)NC(=O)[C@H](C)NC(=O)[C@@H]2CCCN2C(=O)[C@H](Cc2ccccc2)NC(=O)[C@H](Cc2ccc(O)cc2)NC(=O)[C@H](CCSC)NC(=O)[C@H](CCCNC(=N)N)NC1=O [UPAR-150] (Hexanoyl-DLCRMYFPAILC-X3; disulfide 3-12)	7.00 to 7.40
CCCCC(=O)N[C@H]1CSSC[C@@H](C(N)=O)NC(=O)[C@H](CCC)NC(=O)[C@H]([C@@H](C)CC)NC(=O)[C@H](CO)N(C)C(=O)[C@@H]2CCCN2C(=O)[C@H](Cc2ccccc2)NC(=O)[C@H](Cc2ccc(O)cc2)NC(=O)[C@H](CCCCNC(=O)CN2CCN(CC(=O)O)CCN(CC(=O)O)CCN(CC(=O)O)CC2)NC(=O)[C@H](CCCNC(N)=O)NC1=O [UPAR-277] (Pentanoyl-C[Cit]K(DOTA)YFP[NMeS]I[Nva]C-NH2; disulfide 1-10)	7.00 to 7.40
CCCCOC(=O)N[C@H]1CSSC[C@@H](C(N)=O)NC(=O)[C@H](CCC)NC(=O)[C@H]([C@@H](C)CC)NC(=O)[C@@H]2C[C@@H](O)CN2C(=O)[C@@H]2C[C@H](F)CN2C(=O)[C@H](Cc2ccccc2)NC(=O)[C@H](Cc2ccc(O)c(N)c2)NC(=O)[C@H](CCCNC(=O)CN2CCN(CC(=O)O)CCN(CC(=O)O)CCN(CC(=O)O)CC2)NC(=O)[C@H]([C@@H](C)O)NC1=O [UPAR-234] (Butoxycarbonyl-CT[Orn](DOTA)[Tyr(3-NH2)]F[Pro(cis-4-F)][Hyp]I[Nva]C-NH2; disulfide 1-10)	≥ 8.00
CCCCOC(=O)N[C@H]1CSSC[C@@H](C(N)=O)NC(=O)[C@H](CCC)NC(=O)[C@H]([C@@H](C)CC)NC(=O)[C@@H]2C[C@@H](O)CN2C(=O)[C@@H]2C[C@H](F)CN2C(=O)[C@H](Cc2ccc(C#N)cc2)NC(=O)[C@H](Cc2ccc(O)cc2)NC(=O)[C@H](CCCCNC(=O)CN2CCN(CC(=O)O)CCN(CC(=O)O)CCN(CC(=O)O)CC2)NC(=O)[C@H]([C@@H](C)O)NC1=O [UPAR-378] (Butoxycarbonyl-CTK(DOTA)Y[Phe(4-CN)][Pro(cis-4-F)][Hyp]I[Nva]C-NH2; disulfide 1-10)	≥ 8.00
